Test system: UACC-257 melanoma
Test: NCI tumour cell line growth inhibition, 48 h
Output t for TGI not less than 30 µM; output f otherwise.

>>> group("O=S(=O)(Nc1cc(Sc2cccc3cccnc23)c(O)c2ccccc12)c1ccccc1")
"f"
>>> group("CC(=O)NC1c2ccccc2C(C)(C)C12CCC1(CC2)OCCO1 (centres undefined)")
"t"
>>> group("Oc1cccc(-c2nc3cc(F)ccc3s2)c1")
"t"
>>> group("O=C(O)C1C(Br)(c2ccccc2)C1(Br)c1ccccc1 (centres undefined)")
"t"
>>> group("Nc1ccc(S(=O)(=O)Nc2nccs2)cc1")
"t"
>>> group("CN1COCc2c1ccc1cc3ccc4c(c3nc21)COCN4S(C)(=O)=O")
"t"
>>> group("C1CCC([PH+](C2CCCCC2)C2CCCCC2[PH+](C2CCCCC2)C2CCCCC2)CC1.O=C(C1[CH-]CCCC1)C1CCCC[N-]1.[Au] (centres undefined)")
"f"
>>> group("CC1CCCC(CC(=O)O)(CC(=O)O)C1 (centres undefined)")
"t"
>>> group("C=C1CN2CC(=C)CN(C1)CS(=O)(=O)N1CC(=C)CN(CC(=C)C1)S(=O)(=O)N1CC(=C)CN(CC(=C)C1)S(=O)(=O)C2")
"t"
>>> group("O=C1C(=Cc2ccccc2O)N=C(c2ccccc2)N1n1c(-c2ccccc2)nc2ccccc2c1=O")
"t"
>>> group("O=C1[C@@H]2C(c3ccccc3F)=NO[C@@H]2C(=O)N1c1ccc(Cc2ccc(N3C(=O)[C@H]4C(c5ccccc5F)=NO[C@H]4C3=O)cc2)cc1")
"t"
>>> group("COc1ccc(N2C(=O)CSC2c2c[nH]c3ccccc23)cc1 (centres undefined)")
"t"
>>> group("CC(=O)OCC1OC(n2c3c(cc(C#N)c2=S)CCCCC3)C(OC(C)=O)C(OC(C)=O)C1OC(C)=O (centres undefined)")
"t"

---

Known log10(TGI) of a selection of compounds
Tested on: OVCAR-8 ovarian
Test: NCI tumour cell line growth inhibition, 48 h
readout: log10(TGI) (log10 of the value in µM)

>>> data_value("CN(C)c1cc[c]([Sn]([c]2ccc(N(C)C)cc2)([c]2ccc(N(C)C)cc2)[c]2ccc(N(C)C)cc2)cc1")
1.75
>>> data_value("Cn1c(COC(=O)Nc2ccccc2)c(COC(=O)Nc2ccccc2)c2ccc3cc(Cl)c(Cl)cc3c21")
0.88
>>> data_value("CC/C=C\\C[C@H]1C/C=C2/C(=O)C=C[C@@H]2C/C=C\\CCCC(=O)O1")
1.03
>>> data_value("Nc1ccc(-c2nc3ccc(Cc4ccc5nc(-c6ccc(N)cc6)[nH]c5c4)cc3[nH]2)cc1")
0.82
>>> data_value("Cc1cc(NCc2ccccc2)c2ccccc2[n+]1CCCCCCCCCC[n+]1c(C)cc(NCc2ccccc2)c2ccccc21")
0.83
>>> data_value("O=C(N/N=C/c1cc(Br)cc(Br)c1[O-])c1ccccc1O.O=C(N/N=C/c1cc(Br)cc(Br)c1[O-])c1ccccc1O.[Cu+2]")
0.14
>>> data_value("CC(C)C[C@H](NC(=O)/C=C/Cn1ccc2ccccc2c1=O)B(O)O")
1.74
>>> data_value("O=C1c2cccnc2-c2nccc3c2c1nc1cc(Br)ccc13")
-0.41
>>> data_value("O=C(O)/C=c1/c2ccccc2n2nc3ccccc3c12")
1.78
>>> data_value("CC(C)(Cl)C(Br)CCC(=CCCl)CBr (mixture of isomers)")
0.72

Reference source: PubChem BioAssay (NCI)
